Measured cytotoxicity at 70.5 h accompanies every entry in the list below.
Procedure Text: Human HepG2 cell viability assay in 384 well format
Format: toxicity, cell-based
Set-up: dose 125 nL, time 70.5 hour; concentration not given beside the values
Measurement Conditions: HepG2 cells, read-out: Inhibition

Completed entries (count: 5):
* Cc1ccccc1C(C)(C)CNC(=O)CN(C)c1cnccn1 | -0.621%
* N#Cc1nc(COc2ccc3c(c2)OCO3)oc1N1CCCC1 | -26.5%
* COCCN(C)C[C@@H]1CCC[C@@H]2CN(Cc3ccc(OC)nc3)C[C@@H]21 | 0.0071%
* CC(CN1CCOCC1)NC(=O)NCCc1ccc(Cl)s1 (stereo unspecified) | -6.3%
* Cc1ccccc1OCC(=O)N1CC[C@]2(C[C@@H](OCC3CC3)CO2)C1 | -1.4%

Record CC(C)N1CCCC2(CCN(C(=O)CCCn3cncn3)C2)C1=O (stereo unspecified) . Reported cytotoxicity at 70.5 h: -4.98%

Record O=C(c1ccnc(-n2ccnc2)c1)N1CCCC(n2cccn2)C1 (stereo unspecified) . Reported cytotoxicity at 70.5 h: -2.44%

Record `Cc1cncc(NC(=O)c2ccc(CN3CCC(CO)CC3)cc2)c1` . Reported cytotoxicity at 70.5 h: -16.3%

Record CCc1nccn1CCC(=O)N1CCCC1c1cncc(NC)n1 (stereo unspecified) . Reported cytotoxicity at 70.5 h: 5.43%

Record `O=C(COc1cccc(F)c1)N1C[C@H](CO)C[C@H](CN2CCCC2)C1` . Reported cytotoxicity at 70.5 h: 6.4%
